Reported Property: melting point

Record Smiles	Reported Property	Measured Result
Oc1ccc(NC(=S)Nc2nc3ccc(Cl)cc3s2)cc1Cl	melting point	232.5 to 234 °C
COc1cc(NC(=O)Nc2nc3ccc(Cl)cc3s2)ccc1O	melting point	257 to 259 °C
O=C(Nc1ccc(O)c(Cl)c1)Nc1nc2ccc(Br)cc2s1	melting point	290 to 292 °C

Task: Requested field: melting point. Item: O=C(Nc1nc2ccc(F)cc2s1)Nc1ccc(O)cc1F
Output: 270 °C (dec.)

Task: Requested field: melting point. Item: COc1ccc2nc(NC(=O)Nc3ccc(O)c(F)c3)sc2c1
Output: 250 °C (dec.)

Task: Requested field: melting point. Item: O=C(Nc1ccc(O)c(Cl)c1)Nc1nc2ccc([N+](=O)[O-])cc2s1
Output: 277 to 279 °C

Task: Requested field: melting point. Item: O=C(Nc1ccc(O)c(Cl)c1)Nc1nc2ccccc2s1
Output: 115 to 117 °C

Task: Requested field: melting point. Item: O=C(Nc1cc(Cl)c(O)c(Cl)c1)Nc1nc2ccc(Cl)cc2s1
Output: 300 °C (dec.)

###

Molecular target: human 17β-HSD10 enzyme (Homo sapiens, UniProt Q99714)
Construct: made in house; host or cells: Escherichia coli BL21 (DE3)
Sequence (Q99714 whole entry): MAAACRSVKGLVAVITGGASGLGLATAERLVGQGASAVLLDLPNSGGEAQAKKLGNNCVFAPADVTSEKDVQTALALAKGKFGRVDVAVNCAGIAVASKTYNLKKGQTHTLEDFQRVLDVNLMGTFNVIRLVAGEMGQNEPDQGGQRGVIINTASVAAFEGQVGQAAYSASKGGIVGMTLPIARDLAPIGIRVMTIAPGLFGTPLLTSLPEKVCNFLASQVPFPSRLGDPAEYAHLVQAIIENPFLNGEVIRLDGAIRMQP
Experiment: 17β-HSD10 enzyme inhibition screening and IC50 determination (AAC reductase assay, NADH absorbance at 340 nm)
Assay type: biochemical
Settings: 10 μM compound; 320 μM AAC, 320 μM NADH, 37 °C; read-out: Percentage of Residual Activity at 10 μM
Procedure: The enzyme activity of the human recombinant 17β-HSD10 was determined from previously published methods using acetoacetyl-CoA (AAC) as a substrate. The method was based on the decrease in nicotinamide adenine dinucleotide (NADH) cofactor absorbance at 340 nm during its utilization by the enzyme. To establish the reaction properties correctly, the enzyme kinetic parameters were determined. […] The reaction readout was absorbance at 340 nm for 5 min in 20 s intervals at 37 °C. […]
Reported Property: remaining activity at 10 µM (%)

Below are worked cases with known answers.
Compound	Reported Property	Unit Symbol	Measured Result
O=C(Nc1nc2ccc(Cl)cc2s1)Nc1ccc(O)cc1Cl [Compound 4y]	remaining activity at 10 µM	%	94
COc1cc(F)ccc1NC(=O)Nc1nc2ccc(F)cc2s1 [Compound 4s]	remaining activity at 10 µM	%	80.5
O=C(Nc1cccc(Cl)c1)Nc1nc2ccc(Cl)cc2s1 [Compound 4v]	remaining activity at 10 µM	%	100
O=C(Nc1nc2ccc(Cl)cc2s1)Nc1ccc(O)cc1O [Compound 4af]	remaining activity at 10 µM	%	75.5
O=C(Nc1cc(Cl)c(O)c(C(=O)O)c1)Nc1nc2ccc(Cl)cc2s1 [Compound 4ad]	remaining activity at 10 µM	%	64.2
O=C(Nc1cc(Cl)c(O)c(Cl)c1)Nc1nc2ccc(Cl)cc2s1 [Compound 4ab]	remaining activity at 10 µM	%	65.9
O=C(Nc1ccc(O)c(Cl)c1)Nc1nc2ccccc2s1 [Compound 4au]	remaining activity at 10 µM	%	42.2
O=C(Nc1ccc(O)c(Cl)c1)Nc1nc2cc(Cl)ccc2s1 [Compound 4an]	remaining activity at 10 µM	%	52.9

(1) O=C(Nc1ccc(O)c(Cl)c1)Nc1nc2c(Cl)cccc2s1 [Compound 4am]
(2) Nc1ccc2nc(NC(=O)Nc3ccc(O)c(Cl)c3)sc2c1 [Compound 4bg]
(3) COc1ccc(NC(=O)Nc2nc3ccc(Cl)cc3s2)cc1Cl [Compound 4z]
Task: Could you please order the items by remaining activity at 10 µM, going from the lowest number to the highest? Reply with the labels, ordered as the question asks.
Output: 2, 1, 3
(2: 38%, 1: 58.6%, 3: 95.2%)

(1) COc1ccc2nc(NC(=O)Nc3cccc(F)c3OC)sc2c1 [Compound 4r]
(2) O=C(Nc1ccc(O)c(Cl)c1)Nc1nc2ccc(Cl)cc2o1 [Compound 4ar]
Task: Could you check which of 1 and 2 has a smaller value for remaining activity at 10 µM? Please reply using the label of the selected record.
Output: 2
(2: 50.7%, 1: 76.6%)
